- experiment: physchem
- details: buffer, pH 7.4
outcomeMeasure: logD

Known results for molecules:
[
  {
    "structureNotation": "O=c1[nH]c(Oc2cccnc2)nc2cnccc12",
    "logD": -0.2
  },
  {
    "structureNotation": "O=c1[nH]c(Oc2cccc(O)c2)nc2cnccc12",
    "logD": 0.3
  },
  {
    "structureNotation": "O=c1[nH]c(Oc2cnn(CC3CCCCC3)c2)nc2cnccc12",
    "logD": 2.9
  }
]

(a) O=c1[nH]c(Oc2cnn(C3CCCC3)c2)nc2cnccc12
(b) O=c1[nH]c(OCc2ccccc2)nc2cnccc12
**Q:** Given a and b , report the one with the higher recorded logD. Mark your answer with the label of the selected entry.
**A:** b
(b: 2.8, a: 1.7)

###

- experiment: Dissociation constant, pKa of the compound
- Format: physicochemical
outcomeMeasure: pKa

[
  {
    "structureNotation": "CCNc1nc2cnccc2c(=O)[nH]1",
    "pKa": 8.6
  },
  {
    "structureNotation": "CCOc1nc2cnccc2c(=O)[nH]1",
    "pKa": 7.5
  },
  {
    "structureNotation": "CCSc1nc2cnccc2c(=O)[nH]1",
    "pKa": 6.8
  },
  {
    "structureNotation": "CCCc1nc2cnccc2c(=O)[nH]1",
    "pKa": 8.8
  }
]

###

- target: Lysine-specific demethylase 5C (Homo sapiens, UniProt P41229)
- Sequence (P41229 whole entry, the tested form may be a part): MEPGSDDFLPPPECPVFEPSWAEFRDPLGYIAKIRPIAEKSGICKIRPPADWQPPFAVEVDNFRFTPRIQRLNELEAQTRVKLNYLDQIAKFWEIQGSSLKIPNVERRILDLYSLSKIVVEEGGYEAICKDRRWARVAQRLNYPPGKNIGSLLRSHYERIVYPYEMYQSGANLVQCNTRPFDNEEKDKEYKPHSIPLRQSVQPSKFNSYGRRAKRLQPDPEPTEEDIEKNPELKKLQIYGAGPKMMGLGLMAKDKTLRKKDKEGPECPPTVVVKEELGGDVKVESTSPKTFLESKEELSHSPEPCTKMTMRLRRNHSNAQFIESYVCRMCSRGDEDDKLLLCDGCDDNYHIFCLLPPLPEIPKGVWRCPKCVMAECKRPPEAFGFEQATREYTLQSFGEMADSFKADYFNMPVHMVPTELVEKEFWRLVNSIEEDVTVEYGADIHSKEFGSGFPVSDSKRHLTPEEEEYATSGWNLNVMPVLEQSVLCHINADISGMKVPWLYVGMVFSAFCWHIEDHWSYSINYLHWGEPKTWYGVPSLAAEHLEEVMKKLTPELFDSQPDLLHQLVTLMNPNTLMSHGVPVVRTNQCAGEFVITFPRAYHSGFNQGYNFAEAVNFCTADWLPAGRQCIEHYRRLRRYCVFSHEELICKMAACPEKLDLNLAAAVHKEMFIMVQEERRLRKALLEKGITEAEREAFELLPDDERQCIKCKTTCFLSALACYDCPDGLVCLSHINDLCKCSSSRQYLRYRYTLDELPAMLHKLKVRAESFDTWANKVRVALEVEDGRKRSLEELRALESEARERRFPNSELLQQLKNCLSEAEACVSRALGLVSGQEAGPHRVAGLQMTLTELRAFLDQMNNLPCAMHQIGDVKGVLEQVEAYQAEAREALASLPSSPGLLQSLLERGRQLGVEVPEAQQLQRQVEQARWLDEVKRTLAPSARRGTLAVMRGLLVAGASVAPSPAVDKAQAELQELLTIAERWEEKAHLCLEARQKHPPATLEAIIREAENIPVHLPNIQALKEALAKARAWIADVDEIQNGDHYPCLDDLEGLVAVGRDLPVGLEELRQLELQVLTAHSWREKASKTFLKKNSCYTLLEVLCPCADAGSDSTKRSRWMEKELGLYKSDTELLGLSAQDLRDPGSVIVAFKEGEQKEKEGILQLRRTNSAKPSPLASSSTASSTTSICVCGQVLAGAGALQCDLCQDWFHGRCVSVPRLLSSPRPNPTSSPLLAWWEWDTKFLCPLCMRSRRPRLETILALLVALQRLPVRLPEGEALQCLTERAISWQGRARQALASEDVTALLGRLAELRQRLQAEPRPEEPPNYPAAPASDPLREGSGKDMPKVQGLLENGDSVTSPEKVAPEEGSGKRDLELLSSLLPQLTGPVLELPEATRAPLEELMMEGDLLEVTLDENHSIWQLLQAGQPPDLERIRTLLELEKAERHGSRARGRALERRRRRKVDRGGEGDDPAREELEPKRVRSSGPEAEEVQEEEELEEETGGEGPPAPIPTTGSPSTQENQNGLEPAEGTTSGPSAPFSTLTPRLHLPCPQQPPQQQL
- experiment: Inhibition of KDM5C catalytic domain (1 -764 aa) (unknown origin) expressed in Sf9 cells using H3K4Me3 peptide as substrate by RFMS assay
pIC50: −log10 of the molar value.
outcomeMeasure: pIC50

Known results for compounds:
[
  {
    "structureNotation": "O=c1[nH]c(Oc2cnn(CC3CCCCC3)c2)nc2cnccc12",
    "pIC50": 7.10
  },
  {
    "structureNotation": "O=c1[nH]c(Oc2cnn(C3CCCC3)c2)nc2cnccc12",
    "pIC50": 6.90
  }
]

(A) CC(C)c1ccc(Oc2nc3cnccc3c(=O)[nH]2)cn1
(B) O=c1[nH]c(Oc2cnn(Cc3ccccc3)c2)nc2ncccc12
(C) O=c1[nH]c(Oc2cnn(Cc3ccccc3)c2)nc2cnccc12
(D) O=c1[nH]c(Oc2ccc(Cl)c(O)c2)nc2cnccc12
**Q:** Please give the order of these compounds when sorted by pIC50, largest value leading. The reply should contain the labels ordered as requested.
**A:** C, A, D, B
(C: 7.20, A: 6.90, D: 6.70, B: 4.50)

###

- target: UniProt:P41229
- experiment: Inhibition of human KDM5C transfected in U2OS cells assessed as inhibition of […] demethylation for 24 hrs
- Format: cell-based
- details: read-out: pIC50 (converted)
outcomeMeasure: IC50 (µM)

[
  {
    "structureNotation": "O=c1[nH]c(Oc2cnn(C3CCCC3)c2)nc2cnccc12",
    "outcomeMeasure": "IC50",
    "uom": "µM",
    "reportedResult": 5.01
  }
]

(I) O=c1[nH]c(Oc2cnn(Cc3ccccc3)c2)nc2cnccc12
(II) CC(C)c1ccc(Oc2nc3cnccc3c(=O)[nH]2)cn1
(III) O=c1[nH]c(Oc2ccc(Cl)c(O)c2)nc2cnccc12
**Q:** Put these in order: smallest IC50 first, largest last. The reply should contain the labels ordered as requested.
**A:** I, III, II

###

- target: Prolyl hydroxylase EGLN3 (Homo sapiens)
- Sequence (Q9H6Z9 whole entry): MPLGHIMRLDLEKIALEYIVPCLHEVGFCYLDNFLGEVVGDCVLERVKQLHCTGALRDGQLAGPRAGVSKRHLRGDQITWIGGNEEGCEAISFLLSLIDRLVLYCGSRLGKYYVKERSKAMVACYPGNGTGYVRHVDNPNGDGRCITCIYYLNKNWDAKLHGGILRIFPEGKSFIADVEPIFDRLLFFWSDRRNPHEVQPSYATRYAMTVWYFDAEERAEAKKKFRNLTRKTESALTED
pIC50: −log10 of the molar value.
pIC50: recorded values

[
  {
    "structureNotation": "O=c1[nH]c(Oc2ccc(Cl)c(O)c2)nc2cnccc12",
    "target": "Prolyl hydroxylase EGLN3 (Homo sapiens)",
    "pIC50": "< 4.00"
  }
]

**Q:** Request body: readout pIC50, system Prolyl hydroxylase EGLN3 (Homo sapiens), query O=c1[nH]c(Oc2cnn(CC3CCCCC3)c2)nc2cnccc12 . Return the value.
**A:** < 4.00

###

IC50: recorded values
- target: Lysine-specific demethylase 6B (Homo sapiens, UniProt O15054)
- Sequence (O15054 whole entry): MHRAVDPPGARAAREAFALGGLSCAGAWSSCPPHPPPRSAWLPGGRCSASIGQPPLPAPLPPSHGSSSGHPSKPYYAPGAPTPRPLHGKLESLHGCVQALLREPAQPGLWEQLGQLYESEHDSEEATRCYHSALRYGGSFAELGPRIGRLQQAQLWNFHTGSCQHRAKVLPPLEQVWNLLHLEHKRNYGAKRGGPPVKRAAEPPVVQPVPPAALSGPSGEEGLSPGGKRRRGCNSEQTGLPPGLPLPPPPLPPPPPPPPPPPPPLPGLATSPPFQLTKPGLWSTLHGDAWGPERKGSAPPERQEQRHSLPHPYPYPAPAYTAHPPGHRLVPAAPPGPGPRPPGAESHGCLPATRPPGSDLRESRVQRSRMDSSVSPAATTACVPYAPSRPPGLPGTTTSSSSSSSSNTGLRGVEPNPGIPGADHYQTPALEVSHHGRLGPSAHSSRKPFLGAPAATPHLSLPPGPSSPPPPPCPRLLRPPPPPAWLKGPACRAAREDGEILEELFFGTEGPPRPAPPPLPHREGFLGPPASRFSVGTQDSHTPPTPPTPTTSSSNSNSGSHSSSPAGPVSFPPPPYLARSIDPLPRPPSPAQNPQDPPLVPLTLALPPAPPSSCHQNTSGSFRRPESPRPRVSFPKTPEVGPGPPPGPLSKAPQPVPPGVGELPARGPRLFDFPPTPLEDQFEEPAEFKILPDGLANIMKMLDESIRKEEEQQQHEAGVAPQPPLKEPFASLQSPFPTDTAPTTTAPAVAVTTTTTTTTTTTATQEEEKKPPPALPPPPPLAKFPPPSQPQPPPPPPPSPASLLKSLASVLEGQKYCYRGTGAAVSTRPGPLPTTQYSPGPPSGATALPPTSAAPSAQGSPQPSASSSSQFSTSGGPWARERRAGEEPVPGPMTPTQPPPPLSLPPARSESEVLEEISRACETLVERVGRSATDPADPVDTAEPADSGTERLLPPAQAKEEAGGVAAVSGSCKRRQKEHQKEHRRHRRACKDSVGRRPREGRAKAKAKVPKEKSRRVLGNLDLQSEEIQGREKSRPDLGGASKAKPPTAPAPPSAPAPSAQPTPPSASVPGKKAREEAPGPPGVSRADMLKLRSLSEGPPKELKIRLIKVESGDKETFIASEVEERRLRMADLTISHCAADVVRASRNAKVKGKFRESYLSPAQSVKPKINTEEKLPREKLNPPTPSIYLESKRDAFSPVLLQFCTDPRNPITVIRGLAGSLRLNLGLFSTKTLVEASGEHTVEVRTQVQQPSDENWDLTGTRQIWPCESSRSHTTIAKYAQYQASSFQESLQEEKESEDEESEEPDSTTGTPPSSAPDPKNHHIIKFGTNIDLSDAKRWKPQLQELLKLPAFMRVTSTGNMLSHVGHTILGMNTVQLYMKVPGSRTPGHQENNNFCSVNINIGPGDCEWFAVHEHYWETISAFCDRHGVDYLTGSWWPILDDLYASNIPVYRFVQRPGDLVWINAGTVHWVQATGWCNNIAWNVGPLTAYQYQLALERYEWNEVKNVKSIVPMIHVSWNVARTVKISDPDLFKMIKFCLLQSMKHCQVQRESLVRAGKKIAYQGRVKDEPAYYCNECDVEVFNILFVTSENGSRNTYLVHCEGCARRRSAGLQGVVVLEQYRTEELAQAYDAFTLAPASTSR

Known results for compounds:
[
  {
    "structureNotation": "O=c1[nH]c(Oc2cnn(C3CCCC3)c2)nc2cnccc12",
    "reportedResult": "> 100 µM"
  },
  {
    "structureNotation": "O=c1[nH]c(Oc2ccc(Cl)c(O)c2)nc2cnccc12",
    "reportedResult": "> 100 µM"
  }
]

**Q:** IC50 for O=c1[nH]c(Oc2cnn(CC3CCCCC3)c2)nc2cnccc12 ?
**A:** > 100 µM

###

- target: Lysine-specific demethylase 4C (Homo sapiens, UniProt Q9H3R0)
- Sequence (Q9H3R0 whole entry): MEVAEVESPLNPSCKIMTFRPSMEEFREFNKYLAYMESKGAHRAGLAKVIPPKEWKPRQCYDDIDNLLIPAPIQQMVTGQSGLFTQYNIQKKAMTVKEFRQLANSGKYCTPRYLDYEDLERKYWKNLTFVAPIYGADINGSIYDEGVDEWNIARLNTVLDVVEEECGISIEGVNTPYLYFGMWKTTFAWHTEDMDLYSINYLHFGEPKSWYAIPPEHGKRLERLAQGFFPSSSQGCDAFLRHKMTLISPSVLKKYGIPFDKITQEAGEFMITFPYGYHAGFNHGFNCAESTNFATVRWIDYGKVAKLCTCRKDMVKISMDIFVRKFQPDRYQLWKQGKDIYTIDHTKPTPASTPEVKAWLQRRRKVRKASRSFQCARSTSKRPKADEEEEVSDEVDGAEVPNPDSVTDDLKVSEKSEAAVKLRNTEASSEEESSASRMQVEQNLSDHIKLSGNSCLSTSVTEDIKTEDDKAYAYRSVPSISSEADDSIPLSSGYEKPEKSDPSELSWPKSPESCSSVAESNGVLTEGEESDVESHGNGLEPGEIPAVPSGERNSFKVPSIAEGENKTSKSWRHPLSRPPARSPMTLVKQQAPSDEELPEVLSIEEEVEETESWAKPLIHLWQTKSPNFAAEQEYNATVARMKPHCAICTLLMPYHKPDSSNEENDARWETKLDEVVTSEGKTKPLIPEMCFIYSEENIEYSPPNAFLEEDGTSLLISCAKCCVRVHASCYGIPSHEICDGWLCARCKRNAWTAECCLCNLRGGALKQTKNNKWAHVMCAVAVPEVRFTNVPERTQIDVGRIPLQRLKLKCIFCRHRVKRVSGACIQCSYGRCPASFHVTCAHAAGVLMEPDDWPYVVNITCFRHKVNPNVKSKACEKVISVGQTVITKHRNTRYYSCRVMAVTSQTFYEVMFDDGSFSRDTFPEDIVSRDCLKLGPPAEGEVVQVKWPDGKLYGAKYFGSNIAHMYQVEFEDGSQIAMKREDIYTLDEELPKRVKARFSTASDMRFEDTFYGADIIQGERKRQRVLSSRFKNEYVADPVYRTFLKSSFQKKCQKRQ
- experiment: Inhibition of N-terminal his-tagged full-length human KDM4C transfected in U2OS cells assessed as inhibition of H3K9Me3 demethylation for 24 hrs
- Format: cell-based
outcomeMeasure: IC50 (µM)

Known results for compounds:
[
  {
    "structureNotation": "CC(C)n1cc(Oc2nc3cnccc3c(=O)[nH]2)cn1",
    "IC50, µM": 5.01
  },
  {
    "structureNotation": "O=c1[nH]c(Oc2cnn(C3CCCCC3)c2)nc2cnccc12",
    "IC50, µM": 3.98
  }
]

(A) O=c1[nH]c(Oc2cnn(C3CCCCCC3)c2)nc2cnccc12
(B) COc1cccc(Cn2cc(Oc3nc4cnccc4c(=O)[nH]3)cn2)c1
(C) O=c1[nH]c(Oc2ccccc2)nc2cnccc12
(D) O=c1[nH]c(Oc2cnn(-c3ccccc3)c2)nc2cnccc12
**Q:** Put these in order: smallest IC50 first, largest last. The reply should contain the labels ordered as requested.
**A:** A, D, B, C
(A: 2.51 µM, D: 3.98 µM, B: 6.31 µM, C: 12.6 µM)

###

- experiment: physchem
- details: buffer, pH 7.4
outcomeMeasure: logD

[
  {
    "structureNotation": "O=c1[nH]c(Oc2ccc(Cl)c(O)c2)nc2cnccc12",
    "reportedResult": 1.1
  }
]

(a) O=c1[nH]c(OC2CCCCC2)nc2cnccc12
(b) COc1cccc(Cn2cc(Oc3nc4cnccc4c(=O)[nH]3)cn2)c1
**Q:** Given a and b , report the one with the higher recorded logD. Mark your answer with the label of the selected entry.
**A:** a
(a: 3.7, b: 2)

###

- target: Lysine-specific demethylase 4C (Homo sapiens, UniProt Q9H3R0)
- experiment: Inhibition of N-terminal his-tagged human KDM4C expressed in Escherichia coli BL21(DE3) using trimethylated peptide substrate by RFMS assay
pIC50: −log10 of the molar value.
outcomeMeasure: pIC50

[
  {
    "structureNotation": "CCOc1nc2cnccc2c(=O)[nH]1",
    "outcomeMeasure": "pIC50",
    "reportedResult": 6.00
  },
  {
    "structureNotation": "O=c1[nH]c(Oc2ccc(Cl)c(O)c2)nc2cnccc12",
    "outcomeMeasure": "pIC50",
    "reportedResult": 6.40
  },
  {
    "structureNotation": "O=c1[nH]c(-c2ccccc2)nc2cnccc12",
    "outcomeMeasure": "pIC50",
    "reportedResult": 4.70
  },
  {
    "structureNotation": "Cc1c(Oc2nc3cnccc3c(=O)[nH]2)cnn1C",
    "outcomeMeasure": "pIC50",
    "reportedResult": 5.70
  },
  {
    "structureNotation": "O=c1[nH]c(Oc2cnn(C3CCCCC3)c2)nc2cnccc12",
    "outcomeMeasure": "pIC50",
    "reportedResult": 6.40
  },
  {
    "structureNotation": "CC(C)n1cc(Oc2nc3cnccc3c(=O)[nH]2)cn1",
    "outcomeMeasure": "pIC50",
    "reportedResult": 6.30
  }
]

(1) Cc1nn(C)cc1Oc1nc2cnccc2c(=O)[nH]1
(2) Cn1cc(Oc2nc3cnccc3c(=O)[nH]2)cn1
(3) O=c1[nH]c(Oc2cnn(C3CCCC3)c2)nc2cnccc12
(4) CCCc1nc2cnccc2c(=O)[nH]1
**Q:** Please give the order of these compounds when sorted by pIC50, largest value leading. The reply should contain the labels ordered as requested.
**A:** 2, 3, 1, 4
(2: 6.40, 3: 6.20, 1: 5.60, 4: 4.90)

###

- target: Lysine-specific demethylase 4C (Homo sapiens)
- experiment: Inhibition of N-terminal his-tagged full-length human KDM4C transfected in U2OS cells assessed as inhibition of H3K9Me3 demethylation for 24 hrs
- Format: cell-based
pIC50: −log10 of the molar value.
outcomeMeasure: pIC50

[
  {
    "structureNotation": "O=c1[nH]c(Oc2cnn(Cc3ccccc3)c2)nc2cnccc12",
    "outcomeMeasure": "pIC50",
    "reportedResult": 5.30
  },
  {
    "structureNotation": "O=c1[nH]c(Oc2cnn(Cc3cccnc3)c2)nc2cnccc12",
    "outcomeMeasure": "pIC50",
    "reportedResult": 4.90
  }
]

(I) O=c1[nH]c(Oc2cn[nH]c2)nc2cnccc12
(II) CCOc1nc2cnccc2c(=O)[nH]1
(III) O=c1[nH]c(OC2CCCCC2)nc2cnccc12
(IV) O=c1[nH]c(Oc2cnn(CC3CCCCC3)c2)nc2cnccc12
**Q:** Put these in order: smallest pIC50 first, largest last. The reply should contain the labels ordered as requested.
**A:** II, III, I, IV
